// reported rec. Cyno PAPP-A IGFBP4 pIC50 (G-401 pAKT assay) per item
Tested System: recombinant cynomolgus monkey PAPPA (cynomolgus monkey, UniProt A0A2K5WE98 87-1619)
Sequence (A0A2K5WE98 entry or part of it): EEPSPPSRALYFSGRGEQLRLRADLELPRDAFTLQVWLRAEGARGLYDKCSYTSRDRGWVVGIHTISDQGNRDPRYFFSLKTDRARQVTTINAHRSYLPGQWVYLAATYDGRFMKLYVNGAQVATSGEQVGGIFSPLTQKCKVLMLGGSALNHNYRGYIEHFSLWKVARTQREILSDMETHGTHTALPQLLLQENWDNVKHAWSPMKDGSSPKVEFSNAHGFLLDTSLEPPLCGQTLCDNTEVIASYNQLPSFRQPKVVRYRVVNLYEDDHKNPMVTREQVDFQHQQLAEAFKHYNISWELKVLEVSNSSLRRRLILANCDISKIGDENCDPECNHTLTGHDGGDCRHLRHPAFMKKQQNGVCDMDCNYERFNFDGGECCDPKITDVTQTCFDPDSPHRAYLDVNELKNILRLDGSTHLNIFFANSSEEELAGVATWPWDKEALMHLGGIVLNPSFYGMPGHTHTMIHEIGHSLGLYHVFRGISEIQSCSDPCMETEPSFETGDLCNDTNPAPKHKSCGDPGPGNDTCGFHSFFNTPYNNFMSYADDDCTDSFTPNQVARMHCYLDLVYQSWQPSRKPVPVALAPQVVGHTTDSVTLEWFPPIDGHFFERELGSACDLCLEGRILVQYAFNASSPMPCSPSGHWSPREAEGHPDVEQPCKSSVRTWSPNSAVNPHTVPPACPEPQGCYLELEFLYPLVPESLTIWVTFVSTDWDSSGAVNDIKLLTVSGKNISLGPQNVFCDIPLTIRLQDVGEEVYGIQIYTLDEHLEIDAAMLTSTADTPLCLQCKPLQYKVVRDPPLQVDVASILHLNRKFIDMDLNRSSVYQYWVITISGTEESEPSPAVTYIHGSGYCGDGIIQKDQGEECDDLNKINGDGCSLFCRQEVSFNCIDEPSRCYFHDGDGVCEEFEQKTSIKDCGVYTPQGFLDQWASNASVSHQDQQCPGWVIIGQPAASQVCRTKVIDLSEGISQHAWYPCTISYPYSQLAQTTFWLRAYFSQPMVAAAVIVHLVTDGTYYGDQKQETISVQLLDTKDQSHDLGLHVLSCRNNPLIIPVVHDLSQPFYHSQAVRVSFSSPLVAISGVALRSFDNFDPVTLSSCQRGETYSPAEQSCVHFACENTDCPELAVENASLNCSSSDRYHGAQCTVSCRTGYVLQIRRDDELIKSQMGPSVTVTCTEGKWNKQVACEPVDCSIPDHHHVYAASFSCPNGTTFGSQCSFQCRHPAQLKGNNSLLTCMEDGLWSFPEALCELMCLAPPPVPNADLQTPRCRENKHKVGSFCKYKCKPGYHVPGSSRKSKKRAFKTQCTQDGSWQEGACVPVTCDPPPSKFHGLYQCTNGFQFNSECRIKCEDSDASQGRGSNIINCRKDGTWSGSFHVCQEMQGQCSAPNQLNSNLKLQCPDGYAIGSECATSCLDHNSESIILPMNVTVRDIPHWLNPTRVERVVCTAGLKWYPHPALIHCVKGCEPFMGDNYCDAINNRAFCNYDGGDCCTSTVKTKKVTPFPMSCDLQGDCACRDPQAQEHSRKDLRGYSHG
Test Details: cell-based or functional assay
Express it in pIC50; write the number only.

Binder	Measurement
TPP-12743 (antibody, human IgG1, kappa, V domains shown) VH: QVQLVQSGAEVKKPGASVKVSCKASGYTFTSYAMHWVRQAPGQRLEWMGWMNAGTGATKSSQKFQGRVTITRDTSASTAYMELSSLRSEDTAVYYCARGPSLETPTTFGMDVWGQGTTVTVSS VL: DIQMTQSPSSVSASVGDRVTITCRASQGISRWLAWYQQKPGKAPKLLIYAASSLQSGVPSRFSGSGSGTDFTLTISSLQPEDFATYYCQQENAYPFTFGGGTKVEIKR	10
TPP-12708 (antibody, human IgG1, kappa, V domains shown) VH: QVQLVQSGAEVKKPGASVKVSCKASGYTFTSYAMHWVRQAPGQRLEWMGWINAGTGATKYARKFQGRVTITRDTSASTAYMELSSLRSEDTAVYYCARGPSMETPTTYGMEVWGQGTTVTVSS VL: DIQMTQSPSSVSASVGDRVTITCRASQGISRWLAWYQQKPGKAPKLLIYSTSSLQLGVPSRFSGSGSGTDFTLTISSLQPEDFATYYCQQENDYPFTFGGGTKVEIKR	9.7

IN: Given TPP-12681 (antibody, human IgG1, kappa, V domains shown) VH: EVQLVQSGAEVKKPGESLKISCKGSGYSFTSYWTGWVRQAPGKGLEWMGIIYPGGSVARYSPSFQGQVTISADKSISTAYLQWSSLKASDTAVYYCARGPLRSDYPDVWGQGTMVTVSS VL: EIVMTQSPATLSVSPGERATLSCRASQSVGSYLAWYQQKPGQAPRLLIYRGSTRATGIPARFSGSGSGTEFTLTISSLQSEDFAVYYCQQPYVWPITFGGGTKVEIKR , state its recorded rec. Cyno PAPP-A IGFBP4 pIC50 (G-401 pAKT assay).
OUT: 9.46

IN: Another binder: TPP-12792 (antibody, human IgG1, kappa, V domains shown) VH: QLQLQESGPGLVKPSETLSLTCTVSGGSISSSDYYWGWIRQPPGKGLEWIGSIFYSGSTYYNPSLKSRVTISVDTSKNQFSLKLSSVTAADTAVYYCARATTSSSADYWGQGTLVTVSS VL: DIQMTQSPSSVSASVGDRVTITCRASQGISRWLAWYQQKPGKAPKLLIYAASSVQSGVPSRFSGSGSGTDFTLTISSLQPEDFATYYCQQGNVPPLTFGGGTKVEIKR
OUT: 9.23

IN: Please do the same for TPP-12683 (antibody, human IgG1, kappa, V domains shown) VH: QLQLQESGPGLVKPSETLSLTCTVSGGSISSSSYNWGWIRQPPGKGLEWIGSISSSGSTYFNPSLKSRVTISVDTSKNQFSLKLSSVTAADTAVYYCARSGYRPSFYAMDAWGQGTTVTVSS VL: DIQLTQSPSSVSASVGDRVTITCRASQDISYWLAWYQQKPGKAPKLLIYAASSLQSGVPSRFSGSGSGTDFTLTISSLQPEDFATYYCQQAYLLHTFGGGTKVEIKR as well.
OUT: 8.48
